Just for reference, PubChem BioAssay (Tox21) is where these values come from.

- method-summary: qHTS RealTime-Glo MT Cell Viability Assay in HepG2 cells - 40 hour (AID 1224870); also: nearly all actives have a fitted effect of over 50% in size
- measurement-conditions: RealTime-Glo luminescence; series mostly up to 76.8 µM
Results filed as inconclusive are left out. Activity calls are given as the source filed them. Calls follow the shape of the dose curve; as a rule, active = well fitted cell-killing curve with a large enough effect in the repeat runs; inconclusive = weak or mixed curves, or effect the other way; inactive = flat fitted curve, though single readings scatter.
Outcome (select one): yes (1) = active, no (0) = inactive

## Task Could you check what this test reported for CCOC(=O)O[C@H](C)OC(=O)c1ccc2c(c1)cc(C(=O)NC1CCN(C(C)C)CC1)n2Cc1cc(-c2ccc(Cl)s2)on1 ?
## Result yes (1)

## Task Would you mind doing COc1cc(-c2ccc(N=C=O)c(OC)c2)ccc1N=C=O as well?
## Result no (0)

## Task Here is the next compound: Cc1cccc2c1cc1ccc3cccc4ccc2c1c34
## Result no (0)

## Task Let us now turn to O=C1c2ccccc2Cc2ccccc21
## Result no (0)

## Task Could you do the same for CCC(C)(C)C1CCCCC1OC(C)=O (stereo not given) , please?
## Result no (0)

## Task Next compound: Nc1ccccc1O
## Result no (0)

## Task Another compound to look at: CC[C@H]1O[C@]2(CC[C@@H]1C)C[C@@H]1C[C@@H](C/C=C(\C)C[C@@H](C)/C=C/C=C3\CO[C@@H]4[C@H](O)C(C)=C[C@@H](C(=O)O1)[C@]34O)O2
## Result yes (1)

## Task // next record Oc1ccc2cc(SSc3ccc4cc(O)ccc4c3)ccc2c1
## Result no (0)

## Task // repeat for CCCCC(CC)COC(=O)c1ccccc1C(=O)O (stereo not given) and report
## Result no (0)

## Task Now this one: CC(C)CCCCCCCCCCCCCCC(=O)O
## Result no (0)

## Task Entry to check: CCCCCCCC[N+](CCCCCCCC)(CCCCCCCC)CCCCCCCC
## Result yes (1)

## Task Another compound to check: CCCCCCCCn1sc(Cl)c(Cl)c1=O
## Result yes (1)

## Task Likewise for CCCCCCCCNC(C)C(O)c1ccc(SC(C)C)cc1 (stereo not given) ?
## Result yes (1)

## Task And for O=[N+]([O-])c1cc([N+](=O)[O-])c2ccc(S(=O)(=O)O)cc2c1O ?
## Result no (0)

## Task // repeat for O=C(NOCC1CC1)c1ccc(F)c(F)c1Nc1ccc(I)cc1Cl and report
## Result yes (1)

## Task Same for Cc1nc(-c2ccc3c(c2)CCN(CCC2CCC(NC(=O)/C=C/c4ccc(F)cc4)CC2)CC3)no1 (stereo not given)
## Result no (0)

## Task Consider next the compound O=c1[nH]cnc2nc[nH]c12 in the same way.
## Result no (0)

## Task What do you get for C=C(C)C(=O)OCC[N+](C)(C)C ?
## Result no (0)

## Task Thanks! And CC[C@@]1(O)C(=O)OCc2c1cc1n(c2=O)Cc2c-1nc1ccccc1c2/C=N/OC(C)(C)C ?
## Result yes (1)

## Task Query CCCCCCCCCCCCc1ccc(O)cc1 next
## Result yes (1)
